All figures here come from patent US11746100B2.

- test.system: human ferroportin (Homo sapiens)
- Construct: luciferase reporter (read with the Nano-Glo Luciferase Assay System); expressed in transfected cells; host or cells: CHO cells, stably transfected, expression induced with doxycycline
- Sequence (Q9NP59 whole entry): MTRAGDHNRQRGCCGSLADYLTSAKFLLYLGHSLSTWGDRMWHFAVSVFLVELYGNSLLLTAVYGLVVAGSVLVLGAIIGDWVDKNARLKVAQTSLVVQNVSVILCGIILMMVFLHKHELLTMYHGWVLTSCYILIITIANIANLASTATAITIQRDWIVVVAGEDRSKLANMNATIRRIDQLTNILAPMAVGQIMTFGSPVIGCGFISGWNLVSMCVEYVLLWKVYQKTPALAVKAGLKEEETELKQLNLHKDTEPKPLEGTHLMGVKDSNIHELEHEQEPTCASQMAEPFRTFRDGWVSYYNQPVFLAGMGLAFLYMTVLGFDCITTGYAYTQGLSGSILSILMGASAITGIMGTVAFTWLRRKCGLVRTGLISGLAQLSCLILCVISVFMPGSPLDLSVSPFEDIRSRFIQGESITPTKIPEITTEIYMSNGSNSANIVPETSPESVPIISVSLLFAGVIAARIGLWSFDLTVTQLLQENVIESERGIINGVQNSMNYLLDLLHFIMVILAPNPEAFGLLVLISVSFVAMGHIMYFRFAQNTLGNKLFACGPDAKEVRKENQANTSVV
- assay.comment: Biological in-vitro ferroportin internalization assay (luciferase reporter)
- Assay type: cell-based
- measurement.context: average pEC50; stably-transfected CHO cell line expressing human ferroportin tagged to a luciferase reporter; 6 h incubation with test compound
observable: pEC50

Worked examples follow.
Ask: // map "COc1ccc(NC(=O)CN(C)c2nc(-c3ccccn3)nc3c2CCC3)cc1" to recorded pEC50 (system: human ferroportin (Homo sapiens))
Reply: 7.5

Ask: Same lookup for "CN(CC(=O)NC(C)(C)C)c1nc(-c2cc(OCCS(C)(=O)=O)ccn2)nc2c1CCC2" , please.
Reply: 7.9

Would you kindly look at the next entry?
Ask: // map "CN(CC(=O)NC(C)(C)CO)c1nc(-c2cc(OCCO)ccn2)nc2c1CCC2" to recorded pEC50 (system: human ferroportin (Homo sapiens))
Reply: 7.6
